// data source = the RNAGym collection of RNA variant scans (doi:10.1101/gr.219683.116)

B1: mRNA-splicing (parent)
chain: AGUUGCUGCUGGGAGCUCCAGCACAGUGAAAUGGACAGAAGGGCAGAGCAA

variants of: B1; experiment: exon inclusion enrichment index; higher = more inclusion; WT1 exon 5 minigene, HEK293
Respond with true (1) for exon inclusion enrichment index values of 0.07 and above, false (0) for values below.

Check if exon inclusion enrichment index >= 0.07 (inclusive). Item: AGUUGAAGAAGGGCACUCCAGCACAGUGAAAUGGACAGAAGGGCAGAGCAA [C6A U7A C9A U10A A14C G15A]
true (1)
